target: D1 receptors (Bos taurus, UniProt Q95136); construct: The caudate nuclei were dissected out and homogenized in Buffer A; from tissue; host or cells: bovine caudate nuclei membranes (brains from a local slaughterhouse); assay: D1 receptor specific binding, [3H]-SCH23390; design: species or system bovine
Sequence (Q95136 whole entry): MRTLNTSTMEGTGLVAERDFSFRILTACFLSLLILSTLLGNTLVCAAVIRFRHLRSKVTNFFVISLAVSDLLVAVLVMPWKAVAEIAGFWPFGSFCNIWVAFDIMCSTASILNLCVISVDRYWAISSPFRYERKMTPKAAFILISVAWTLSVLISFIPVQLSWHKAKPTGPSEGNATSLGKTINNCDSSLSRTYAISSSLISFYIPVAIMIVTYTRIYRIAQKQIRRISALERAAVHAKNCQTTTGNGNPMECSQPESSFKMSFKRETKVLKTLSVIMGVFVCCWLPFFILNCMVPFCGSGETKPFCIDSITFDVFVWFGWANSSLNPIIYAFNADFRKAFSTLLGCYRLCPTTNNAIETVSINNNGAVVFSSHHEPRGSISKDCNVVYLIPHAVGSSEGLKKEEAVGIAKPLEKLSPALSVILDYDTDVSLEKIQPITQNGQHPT
pKi: −log10 of the molar value.
PROPERTY_MEASURED: pKi

[[record]]
compound = "CCCN(CCc1cccs1)C1CCc2c(O)cccc2C1 (stereo not shown)"
test_result = 6.00


---

biological target: D2 receptors (Bos taurus); construct: The caudate nuclei were dissected out and homogenized in Buffer A; assay: D2 receptor specific binding, [3H]-Spiperone; conditions: bovine caudate nuclei; [3H]-Spiperone; 30 nM ketanserin; 75 minutes at room temperature
Sequence (P20288 whole entry): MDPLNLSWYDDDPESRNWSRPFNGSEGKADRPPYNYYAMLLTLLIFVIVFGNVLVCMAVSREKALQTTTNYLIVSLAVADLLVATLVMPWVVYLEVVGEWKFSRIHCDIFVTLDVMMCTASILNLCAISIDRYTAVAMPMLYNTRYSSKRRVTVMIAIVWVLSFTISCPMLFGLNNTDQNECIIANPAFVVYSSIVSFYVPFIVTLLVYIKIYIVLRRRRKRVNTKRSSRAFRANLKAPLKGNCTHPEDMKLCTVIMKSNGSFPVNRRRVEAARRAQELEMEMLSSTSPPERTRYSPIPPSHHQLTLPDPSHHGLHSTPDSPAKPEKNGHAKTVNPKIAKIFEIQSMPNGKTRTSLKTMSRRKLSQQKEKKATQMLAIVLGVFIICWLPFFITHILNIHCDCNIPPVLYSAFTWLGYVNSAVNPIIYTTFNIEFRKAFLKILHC
PROPERTY_MEASURED: Ki (µM)

[[record]]
compound = "CCCN(CCc1ccc2ccccc2c1)C1CCc2c(O)cccc2C1 (stereo not drawn)"
test_result = 0.08

[[record]]
compound = "CCCN(CCc1csc2ccccc12)C1CCc2c(O)cccc2C1 (stereo not drawn)"
test_result = 0.13

[[record]]
compound = "CCCN(CCc1cccs1)C1CCc2c(O)cccc2C1 (stereo not drawn)"
test_result = 0.11


---

molecular target: D1 receptors (Bos taurus, UniProt Q95136); construct: The caudate nuclei were dissected out and homogenized in Buffer A; from tissue; host or cells: bovine caudate nuclei membranes (brains from a local slaughterhouse); test: D1 receptor specific binding, [3H]-SCH23390; parameters: species or system bovine; conditions: bovine caudate nuclei; [3H]-SCH23390; 15 minutes at 37° C.; read-out: Ki D1
pKi: −log10 of the molar value.
PROPERTY_MEASURED: pKi

[[record]]
compound = "CCCN(CCc1csc2ccccc12)C1CCc2c(O)cccc2C1 (centres unmarked)"
test_result = 5.71

[[record]]
compound = "CCCN(CCc1ccc2ccccc2c1)C1CCc2c(O)cccc2C1 (centres unmarked)"
test_result = 5.19


---

molecular target: D-1 dopamine receptor (Bos taurus, UniProt Q95136); construct: membranes isolated from the striatum of bovine brain; test: displacement of tritium labeled SCH 23390 at the D-1 dopamine receptor, striatum membranes; settings: D-1; bovine brain striatum membranes; tritium labeled SCH 23390; read-out: 1C50 value at the D-1 receptor
pIC50: −log10 of the molar value.
PROPERTY_MEASURED: pIC50

[[record]]
compound = "CCCN(CCc1cc2ccccc2s1)C1CCc2c(O)cccc2C1 (stereo not shown)"
test_result = "< 4.00"


---

Molecular target: α2-adrenergic receptors (Rattus norvegicus, UniProt P22909)
Construct: from tissue; host or cells: cerebral cortex membranes of male Sprague Dawley rats
Sequence (P22909 1-465): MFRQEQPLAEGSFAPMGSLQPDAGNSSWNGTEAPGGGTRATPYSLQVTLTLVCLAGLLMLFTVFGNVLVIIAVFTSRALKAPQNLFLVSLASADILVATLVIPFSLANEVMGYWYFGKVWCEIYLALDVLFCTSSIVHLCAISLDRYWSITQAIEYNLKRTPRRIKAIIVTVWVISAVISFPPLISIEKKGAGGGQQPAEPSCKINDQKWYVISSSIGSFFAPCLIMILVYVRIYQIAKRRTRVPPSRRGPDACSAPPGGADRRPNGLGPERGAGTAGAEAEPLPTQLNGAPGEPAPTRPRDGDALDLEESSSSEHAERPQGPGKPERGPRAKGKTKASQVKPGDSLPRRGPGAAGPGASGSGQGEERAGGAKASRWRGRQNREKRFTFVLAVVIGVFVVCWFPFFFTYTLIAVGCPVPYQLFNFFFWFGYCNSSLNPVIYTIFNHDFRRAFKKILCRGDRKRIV
Assay: α2-adrenergic receptor specific binding, [3H]-Para aminoclonidine
Procedure: Dopamine receptor assays: Specific binding studies to test the affinity of the compounds for D1, D2 and α2 receptors were conducted using bovine caudate nuclei prepared as follows: α2-adrenergic receptors assays were conducted using the rat cerebral cortex prepared as follows: Male Sprague Dawley rats were killed by decapitation and the brains removed. The cerebral cortices were homogenized in 50 mM Tris; 2 mM MgCl2 (pH 7.4), and centrifuged at 40,000×g for 10 minutes. […]
PROPERTY_MEASURED: Ki (nM)

[[record]]
compound = "CCCN(CCc1cccs1)C1CCc2c(O)cccc2C1 (stereo not shown)"
property_measured = "Ki"
test_result = 190


---

Target: α2-adrenergic receptors (Rattus norvegicus, UniProt P22909)
Construct: from tissue; host or cells: cerebral cortex membranes of male Sprague Dawley rats
Sequence (P22909 1-465): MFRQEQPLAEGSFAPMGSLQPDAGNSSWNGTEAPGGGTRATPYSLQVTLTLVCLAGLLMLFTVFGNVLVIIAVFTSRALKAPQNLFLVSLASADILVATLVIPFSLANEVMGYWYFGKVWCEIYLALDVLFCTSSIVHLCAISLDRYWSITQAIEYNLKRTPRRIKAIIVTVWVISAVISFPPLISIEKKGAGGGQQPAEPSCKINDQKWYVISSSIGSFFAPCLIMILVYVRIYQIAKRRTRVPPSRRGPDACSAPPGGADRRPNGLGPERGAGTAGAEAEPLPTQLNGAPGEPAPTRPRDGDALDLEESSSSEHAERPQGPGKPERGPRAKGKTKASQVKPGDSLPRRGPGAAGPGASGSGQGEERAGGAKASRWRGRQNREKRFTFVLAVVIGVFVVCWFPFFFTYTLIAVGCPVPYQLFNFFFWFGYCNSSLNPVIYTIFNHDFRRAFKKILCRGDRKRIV
Assay: α2-adrenergic receptor specific binding, [3H]-Para aminoclonidine
Conditions: rat cerebral cortex; [3H]-Para aminoclonidine; 30 minutes at room temperature; read-out: Ki α2
PROPERTY_MEASURED: Ki (nM)

[[record]]
compound = "CCCN(CCc1csc2ccccc12)C1CCc2c(O)cccc2C1 (centres unmarked)"
measure_unit = "nM"
test_result = 250

[[record]]
compound = "CCCN(CCc1ccc2ccccc2c1)C1CCc2c(O)cccc2C1 (centres unmarked)"
measure_unit = "nM"
test_result = 2500

